- Tested on: DMS 273
- procedure details: NCI in vitro screen, SRB percent growth, Small Cell Lung Cancer
- condition set: read-out: LC-50; PG=-50
value type: CC50
Field: value (include unit after the number)

Q. Quickly give me recorded CC50 for COc1ccc2[nH]c3c(C)c4c(c(C)c3c2c1)CN(C)C=C4
A. 54.3 µM
